# Assayed target: Integrin alpha-4/beta-1 (Homo sapiens, UniProt P05556+P13612)
# Sequence (P05556 whole entry): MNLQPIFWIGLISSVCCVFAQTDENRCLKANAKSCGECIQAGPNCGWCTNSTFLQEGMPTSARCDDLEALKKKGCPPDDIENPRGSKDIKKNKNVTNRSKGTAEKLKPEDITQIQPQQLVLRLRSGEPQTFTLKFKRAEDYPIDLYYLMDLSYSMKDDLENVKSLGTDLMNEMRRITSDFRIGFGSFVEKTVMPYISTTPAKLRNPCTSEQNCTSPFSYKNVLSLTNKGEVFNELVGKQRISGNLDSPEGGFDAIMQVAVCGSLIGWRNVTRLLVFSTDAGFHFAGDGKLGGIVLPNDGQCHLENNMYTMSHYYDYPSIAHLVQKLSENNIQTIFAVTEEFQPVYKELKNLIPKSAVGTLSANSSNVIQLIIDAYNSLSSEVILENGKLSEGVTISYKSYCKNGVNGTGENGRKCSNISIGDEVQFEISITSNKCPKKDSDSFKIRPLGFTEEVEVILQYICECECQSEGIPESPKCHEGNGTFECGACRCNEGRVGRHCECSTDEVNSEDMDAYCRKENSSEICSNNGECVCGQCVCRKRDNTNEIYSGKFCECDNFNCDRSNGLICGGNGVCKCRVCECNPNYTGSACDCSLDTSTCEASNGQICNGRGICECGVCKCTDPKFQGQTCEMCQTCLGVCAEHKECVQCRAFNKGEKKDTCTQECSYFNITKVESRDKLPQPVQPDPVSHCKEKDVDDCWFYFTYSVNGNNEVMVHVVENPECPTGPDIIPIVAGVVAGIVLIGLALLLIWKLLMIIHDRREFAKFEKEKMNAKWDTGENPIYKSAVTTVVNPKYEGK
# Sequence (P13612 whole entry): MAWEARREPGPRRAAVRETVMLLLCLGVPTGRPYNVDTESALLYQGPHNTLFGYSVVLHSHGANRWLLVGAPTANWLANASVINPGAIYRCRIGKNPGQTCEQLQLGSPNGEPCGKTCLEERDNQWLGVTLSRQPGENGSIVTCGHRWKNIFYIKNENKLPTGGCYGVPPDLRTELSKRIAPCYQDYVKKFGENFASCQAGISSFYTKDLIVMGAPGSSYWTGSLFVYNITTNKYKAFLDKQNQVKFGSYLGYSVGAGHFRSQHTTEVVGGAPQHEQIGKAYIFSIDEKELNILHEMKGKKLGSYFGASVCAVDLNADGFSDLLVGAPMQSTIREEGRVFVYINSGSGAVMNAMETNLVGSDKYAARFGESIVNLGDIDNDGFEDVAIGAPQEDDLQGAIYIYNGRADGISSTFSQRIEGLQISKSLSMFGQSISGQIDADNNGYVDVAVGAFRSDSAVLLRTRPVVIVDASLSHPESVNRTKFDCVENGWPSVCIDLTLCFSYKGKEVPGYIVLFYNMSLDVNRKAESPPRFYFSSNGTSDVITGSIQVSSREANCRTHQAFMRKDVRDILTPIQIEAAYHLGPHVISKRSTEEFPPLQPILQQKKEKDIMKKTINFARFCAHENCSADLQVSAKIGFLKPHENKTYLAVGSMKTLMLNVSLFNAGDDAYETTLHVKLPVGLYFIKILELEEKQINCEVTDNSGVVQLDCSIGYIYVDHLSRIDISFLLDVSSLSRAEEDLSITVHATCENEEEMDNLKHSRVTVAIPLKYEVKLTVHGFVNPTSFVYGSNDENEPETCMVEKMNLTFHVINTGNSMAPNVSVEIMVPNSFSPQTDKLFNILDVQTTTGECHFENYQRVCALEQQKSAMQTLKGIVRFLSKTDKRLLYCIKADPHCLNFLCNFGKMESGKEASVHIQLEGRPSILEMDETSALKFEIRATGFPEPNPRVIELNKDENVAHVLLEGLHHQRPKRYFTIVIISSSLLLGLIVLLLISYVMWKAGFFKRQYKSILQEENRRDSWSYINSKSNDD
# Protocol summary: Inhibition of purified alpha-4 beta-1 binding to VCAM-1 was determined in an ELISA assay.
# Assay type: protein-complex assay
pIC50: −log10 of the molar value. Where a SMILES comes first, the peptide text is derived from it. Bridges are numbered along the chain shown (N, C = ends). [ ]: non-standard residue; d: D form. Inp = O=C(O)C1CCNCC1; Ava = NCCCCC(=O)O
Rule: pIC50 under 7 gives False, otherwise True.

INSERT INTO measurements (molecule, class) VALUES
  ('N=C(N)NCCC[C@H](NC(=O)[C@@H](N)Cc1c[nH]c2ccccc12)C(=O)N[C@H]1CSSC[C@@H](C(=O)O)NC(=O)[C@@H]2CCCN2C(=O)[C@H](CC(=O)O)NC1=O (H-WRCDPC-OH; disulfide 3-6)', 'False'),
  ('CC(=O)N[C@@H](CCCN=C(N)N)C(=O)N[C@H]1CSSC[C@@H](C(=O)O)NC(=O)[C@@H]2CCCN2C(=O)[C@H](CC(=O)O)NC1=O (Ac-RCDPC-OH; disulfide 2-5)', 'False'),
  ('N[C@@H](Cc1ccc(O)cc1)C(=O)N[C@H]1CSSC[C@@H](C(=O)O)NC(=O)CCCCNC1=O (H-YC[Ava]C-OH; disulfide 2-4)', 'False'),
  ('N[C@@H](Cc1ccc(O)cc1)C(=O)N[C@H]1CSSC[C@@H](C(=O)O)NC(=O)C2CCN(CC2)C1=O (H-YC[Inp]C-OH; disulfide 2-4)', 'True');

* * *

Each entry below carries its recorded pIC50.
# Assayed target: Integrin alpha-4/beta-1 (Homo sapiens, UniProt P05556+P13612)
# Protocol summary: Inhibition of fluorescently labeled alpha4-beta1 positive Ramos cells binding to immobilized VCAM-1.
# Assay type: cell-based
pIC50: −log10 of the molar value. *1 amine or outer side, *2 acyl side, *3 side chain or, on linkers, in order; H or OH if unused. Where a SMILES comes first, the peptide text is derived from it. Bridges are numbered along the chain shown (N, C = ends). [ ]: non-standard residue; d: D form. The star is where a group is joined. X3 = O=C([C@H]1[C@H](c2ccc(O)cc2)CCN1[*:1])[*:2]; Tyr(3-Cl) = N[C@@H](Cc1ccc(O)c(Cl)c1)C(=O)O; Bz = O=C(c1ccccc1)*; βAla = NCCC(=O)O
Reported property: pIC50

INSERT INTO results (compound, measured_value) VALUES
  ('N[C@@H](Cc1ccc(O)cc1)C(=O)N[C@H]1CSSC[C@@H](C(=O)O)NC(=O)CCNC1=O (H-YC[βAla]C-OH; disulfide 2-4)', 3.68),
  ('CC(=O)N1CC[C@@H](c2ccc(O)cc2)[C@@H]1C(=O)N[C@H]1CSSC[C@@H](C(=O)O)NC(=O)[C@@H]2CCCN2C(=O)[C@H](CO)NC1=O (Ac-[X3]CSPC-OH; disulfide 2-5)', 8.10),
  ('N[C@@H](Cc1ccc(O)c(Cl)c1)C(=O)N[C@H]1CSSC[C@@H](C(=O)O)NC(=O)[C@@H]2CCCN2C(=O)[C@H](CO)NC1=O (H-[Tyr(3-Cl)]CSPC-OH; disulfide 2-5)', 6.22),
  ('O=C(N[C@H]1CSSC[C@@H](C(=O)O)NC(=O)[C@@H]2CCCN2C(=O)[C@H](CO)NC1=O)c1ccccc1 (Bz-CSPC-OH; disulfide 1-4)', 5.72),
  ('C[C@@H]1NC(=O)[C@@H](NC(=O)[C@H](CCCN=C(N)N)NC(=O)[C@@H](N)Cc2ccc(O)cc2)CSSC[C@@H](C(=O)O)NC(=O)[C@@H]2CCCN2C1=O (H-YRCAPC-OH; disulfide 3-6)', 5.10);

* * *

Each entry below carries its recorded pIC50.
# Assayed target: Integrin alpha-4/beta-1 (Homo sapiens, UniProt P05556+P13612)
# Protocol summary: Inhibition of alpha4-beta1 binding to VCAM-1 in ELISA.
# Format: protein-complex assay
pIC50: −log10 of the molar value. Where a SMILES comes first, the peptide text is derived from it. Bridges are numbered along the chain shown (N, C = ends). [ ]: non-standard residue; d: D form. 3Abz = Nc1cccc(C(=O)O)c1
Reported property: pIC50

INSERT INTO measurements (compound, assayed_target, reported_property, measured_value) VALUES
  ('N[C@@H](Cc1ccc(O)cc1)C(=O)N[C@H]1CSSC[C@@H](C(=O)O)NC(=O)c2cccc(c2)NC1=O (H-YC[3Abz]C-OH; disulfide 2-4)', 'Integrin alpha-4/beta-1 (Homo sapiens, UniProt P05556+P13612)', 'pIC50', 8.10),
  ('NC(N)=NCCC[C@H](N)C(=O)N[C@H]1CSSC[C@@H](C(=O)O)NC(=O)[C@@H]2CCCN2C(=O)[C@H](CC(=O)O)NC1=O (H-RCDPC-OH; disulfide 2-5)', 'Integrin alpha-4/beta-1 (Homo sapiens, UniProt P05556+P13612)', 'pIC50', 5.43);

* * *

# Assayed target: Integrin alpha-4/beta-1 (Homo sapiens, UniProt P05556+P13612)
# Protocol summary: Inhibition of purified alpha-4 beta-1 binding to VCAM-1 was determined in an ELISA assay.
# Format: protein-complex assay
pIC50: −log10 of the molar value. Where a SMILES comes first, the peptide text is derived from it. Bridges are numbered along the chain shown (N, C = ends). [ ]: non-standard residue; d: D form. The star is where a group is joined. Phenylacetyl(4-OMe) = COc1ccc(CC(=O)*)cc1; X1 = O=C(C(Cc1ccc(O)cc1)c1ccccc1)*; Hyp = O=C(O)[C@@H]1C[C@@H](O)CN1; Chg = N[C@H](C(=O)O)C1CCCCC1
Each entry below carries its recorded pIC50.
Reported property: pIC50

INSERT INTO assay_data (molecule, assayed_target, measured_value) VALUES
  ('N[C@@H](Cc1ccc(O)cc1)C(=O)N[C@H]1CSSC[C@@H](C(=O)O)NC(=O)[C@H](C2CCCCC2)NC1=O (H-YC[Chg]C-OH; disulfide 2-4)', 'Integrin alpha-4/beta-1 (Homo sapiens, UniProt P05556+P13612)', 3.94),
  ('O=C(N[C@H]1CSSC[C@@H](C(=O)O)NC(=O)[C@@H]2CCCN2C(=O)[C@H](CO)NC1=O)C(Cc1ccc(O)cc1)c1ccccc1 (stereo not given in full) (X1-CSPC-OH; disulfide 1-4)', 'Integrin alpha-4/beta-1 (Homo sapiens, UniProt P05556+P13612)', 7.89),
  ('COc1ccc(CC(=O)N[C@H]2CSSC[C@@H](C(=O)O)NC(=O)[C@@H]3CCCN3C(=O)[C@H](CO)NC2=O)cc1 ({Phenylacetyl(4-OMe)}-CSPC-OH; disulfide 1-4)', 'Integrin alpha-4/beta-1 (Homo sapiens, UniProt P05556+P13612)', 6.60),
  ('CC(=O)N[C@@H](Cc1ccc(O)cc1)C(=O)N[C@H]1CSSC[C@@H](C(N)=O)NC(=O)[C@@H]2CCCN2C(=O)[C@H](C)NC1=O (Ac-YCAPC-NH2; disulfide 2-5)', 'Integrin alpha-4/beta-1 (Homo sapiens, UniProt P05556+P13612)', 6.49),
  ('C[C@@H]1NC(=O)[C@@H](NC(=O)[C@@H](N)Cc2ccc(O)cc2)CSSC[C@@H](C(=O)O)NC(=O)[C@@H]2C[C@@H](O)CN2C1=O (H-YCA[Hyp]C-OH; disulfide 2-5)', 'Integrin alpha-4/beta-1 (Homo sapiens, UniProt P05556+P13612)', 8.30);

* * *

# Assayed target: Integrin alpha-4/beta-1 (Homo sapiens, UniProt P05556+P13612)
# Protocol summary: Inhibition of fluorescently labeled alpha4-beta1 positive Ramos cells binding to immobilized VCAM-1.
# Format: cell-based
Where a SMILES comes first, the peptide text is derived from it. Bridges are numbered along the chain shown (N, C = ends). [ ]: non-standard residue; d: D form. The star is where a group is joined. Fluorene(1-CO) = O=C(c1cccc2c1Cc1ccccc1-2)*; Tyr(3-I) = N[C@@H](Cc1ccc(O)c(I)c1)C(=O)O; Cha = N[C@@H](CC1CCCCC1)C(=O)O
Mark true (1) for IC50 under 20 µM, false (0) if at or over.

INSERT INTO measurements (compound, class) VALUES
  ('NC(N)=NCCC[C@H](N)C(=O)N[C@H]1CSSC[C@@H](C(=O)O)NC(=O)[C@@H]2CCCN2C(=O)[C@H](CC(=O)O)NC1=O (H-RCDPC-OH; disulfide 2-5)', 'false (0)'),
  ('N[C@@H](Cc1ccc(O)c(I)c1)C(=O)N[C@H]1CSSC[C@@H](C(=O)O)NC(=O)[C@@H]2CCCN2C(=O)[C@H](CO)NC1=O (H-[Tyr(3-I)]CSPC-OH; disulfide 2-5)', 'true (1)'),
  ('C[C@@H]1NC(=O)[C@@H](NC(=O)[C@@H](N)Cc2ccc(O)cc2)CSSC[C@@H](C(=O)O)NC(=O)[C@H](CC2CCCCC2)NC1=O (H-YCA[Cha]C-OH; disulfide 2-5)', 'false (0)'),
  ('O=C(N[C@H]1CSSC[C@@H](C(=O)O)NC(=O)[C@@H]2CCCN2C(=O)[C@H](CO)NC1=O)c1cccc2c1Cc1ccccc1-2 ({Fluorene(1-CO)}-CSPC-OH; disulfide 1-4)', 'true (1)'),
  ('CC(C)C[C@@H]1NC(=O)[C@H](C)NC(=O)[C@@H](NC(=O)[C@@H](N)Cc2ccc(O)cc2)CSSC[C@@H](C(=O)O)NC1=O (H-YCALC-OH; disulfide 2-5)', 'true (1)');

Data provenance: ChEMBL document CHEMBL1130186
